- system: Acetylcholinesterase (Homo sapiens)
- Sequence (P22303 whole entry): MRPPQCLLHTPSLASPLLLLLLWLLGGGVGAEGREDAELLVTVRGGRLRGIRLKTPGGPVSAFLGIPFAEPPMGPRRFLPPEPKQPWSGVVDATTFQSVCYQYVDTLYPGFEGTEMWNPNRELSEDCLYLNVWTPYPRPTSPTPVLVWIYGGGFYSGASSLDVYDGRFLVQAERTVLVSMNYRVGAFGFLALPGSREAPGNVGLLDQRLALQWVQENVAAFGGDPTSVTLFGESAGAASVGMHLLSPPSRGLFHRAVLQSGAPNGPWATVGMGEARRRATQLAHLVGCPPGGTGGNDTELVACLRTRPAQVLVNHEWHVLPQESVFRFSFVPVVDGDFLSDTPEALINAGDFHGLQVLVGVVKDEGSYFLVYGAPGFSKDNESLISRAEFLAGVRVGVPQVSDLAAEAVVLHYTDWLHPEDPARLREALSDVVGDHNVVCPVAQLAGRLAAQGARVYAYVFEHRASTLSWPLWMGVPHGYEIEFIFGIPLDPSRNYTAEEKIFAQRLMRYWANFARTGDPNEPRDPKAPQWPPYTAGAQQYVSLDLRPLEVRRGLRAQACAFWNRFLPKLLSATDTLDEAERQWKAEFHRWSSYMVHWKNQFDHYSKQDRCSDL
- experimentDescription: Inhibition of human recombinant AChE by Ellman's method
property: pKi
Answers are plain numbers, as −log10 of the molar value.

- compound: "O=c1cc(-c2ccc(O)c(O)c2)oc2cc(O)cc(O)c12"
  pKi: 4.18
- compound: "O=c1c(O)c(-c2ccccc2)oc2cc(O)cc(O)c12 [norizalpinin]"
  pKi: 4.07
- compound: "O=c1c(O)c(-c2ccc(O)c(O)c2)oc2cc(O)ccc12"
  pKi: 4.00
- compound: "O=c1c(O)c(-c2ccc(O)cc2)oc2cc(O)cc(O)c12"
  pKi: 4.03
- compound: "O=c1c(O)c(-c2ccc(O)c(O)c2)oc2cc(O)cc(O)c12"
  pKi: 4.42

Return reported pKi values for all items listed beneath this line.
1. O=c1c(O)c(-c2cc(O)c(O)c(O)c2)oc2cc(O)cc(O)c12
2. O=c1cc(-c2ccc(O)cc2)oc2cc(O)cc(O)c12 [Naringenin, 18]

4.42
3.92

###

- system: Cholinesterase (Homo sapiens, UniProt P06276)
- Sequence (P06276 whole entry): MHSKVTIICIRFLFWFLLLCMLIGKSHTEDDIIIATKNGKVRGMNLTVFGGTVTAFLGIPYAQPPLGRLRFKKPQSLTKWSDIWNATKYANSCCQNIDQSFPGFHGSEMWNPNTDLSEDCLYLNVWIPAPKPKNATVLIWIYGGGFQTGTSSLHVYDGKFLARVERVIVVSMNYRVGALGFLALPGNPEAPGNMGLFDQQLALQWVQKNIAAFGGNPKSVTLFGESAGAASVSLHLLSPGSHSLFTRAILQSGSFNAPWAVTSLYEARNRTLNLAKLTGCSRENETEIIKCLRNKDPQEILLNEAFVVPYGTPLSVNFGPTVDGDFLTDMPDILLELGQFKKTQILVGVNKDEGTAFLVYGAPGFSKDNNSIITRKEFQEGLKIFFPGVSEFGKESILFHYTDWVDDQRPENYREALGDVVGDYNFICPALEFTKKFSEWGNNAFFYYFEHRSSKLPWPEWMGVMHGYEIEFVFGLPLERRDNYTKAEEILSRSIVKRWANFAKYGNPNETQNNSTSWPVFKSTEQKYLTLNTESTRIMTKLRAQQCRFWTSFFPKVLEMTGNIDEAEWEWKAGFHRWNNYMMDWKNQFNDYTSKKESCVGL
- experimentDescription: Inhibition of human plasma BChE by Ellman's method
property: Ki

- compound: "O=c1cc(-c2ccc(O)c(O)c2)oc2cc(O)cc(O)c12"
  Ki: "166 µM"
- compound: "O=c1c(O)c(-c2ccc(O)c(O)c2)oc2cc(O)cc(O)c12"
  Ki: "68 µM"
- compound: "O=c1c(O)c(-c2ccccc2)oc2cc(O)cc(O)c12 [norizalpinin]"
  Ki: "6.9 µM"
- compound: "C[C@@H]1O[C@@H](OC[C@H]2O[C@@H](Oc3c(-c4ccc(O)c(O)c4)oc4cc(O)cc(O)c4c3=O)[C@H](O)[C@@H](O)[C@@H]2O)[C@H](O)[C@H](O)[C@H]1O [3-Rhamnoglucosylquercetin]"
  Ki: "501 µM"
- compound: "O=c1c(O)c(-c2cc(O)c(O)c(O)c2)oc2cc(O)cc(O)c12"
  Ki: "71 µM"

Each of the following entries comes with a recorded value; kindly state Ki for each.
1. O=c1cc(-c2ccc(O)cc2)oc2cc(O)cc(O)c12 [Naringenin, 18]
2. O=c1c(O)c(-c2ccc(O)cc2)oc2cc(O)cc(O)c12
3. O=c1c(O)c(-c2ccc(O)c(O)c2)oc2cc(O)ccc12

["37.4 µM", "43.1 µM", "90 µM"]
